FYI, the data here is from PubChem BioAssay (NCI).

Tested on: 786-0 renal
Test: NCI tumour cell line growth inhibition, 48 h
measurement.label: TGI

CN(C)c1ccc(C=Nc2ccc(-c3nc4ccccc4o3)cc2)cc1
> 100 µM
O=Cc1cc(O)ccc1Br
> 78.3 µM
CCCNc1c(Cl)cc(Cl)c2[nH]c3ccccc3c(=O)c12
> 100 µM
C=C1CCC2C3(C)COC(c4cccc(Cl)c4)OC3CCC2(C)C1/C=C/C1=CCOC1=O (stereo unspecified)
> 100 µM
C/C(O)=C/c1nc2sc(C)c(C)c2c(=O)s1
> 100 µM

Kindly consider the entry below.
IN: What measured TGI goes with COc1ccc(C(=O)Nc2ccccc2C#N)cc1 ?
OUT: > 100 µM

---

Tested on: HCC-2998 colon
Test: NCI tumour cell line growth inhibition, 48 h
measurement.label: TGI

COc1cccc2c(=O)c3c(O)c4cc(N(C)C)ccc4c(OC(C)=O)c3oc12
32.5 µM
[N-]=[N+]=NC1=C(N=[N+]=[N-])c2cccc3cccc(c23)C1=O
> 100 µM
COc1cc(O)c2c(=O)cc(C3(OC(C)=O)C=CC(OC4OC(CO)C(O)C(O)C4O)C=C3)oc2c1 (stereo unspecified)
> 100 µM
CC(=O)/C(=C\n1c(=S)[nH]c2ccc([N+](=O)[O-])cc21)C(=O)Nc1ccccc1C
> 100 µM
CNS(=O)(=O)NN(C)S(=O)(=O)c1ccc(C)cc1
> 100 µM

IN: # returns recorded TGI (system: HCC-2998 colon) for c1ncc(C23C4C5C6C4C2C6C53)[nH]1 (stereo unspecified)
OUT: > 100 µM

IN: # returns recorded TGI (system: HCC-2998 colon) for CCOC(=O)c1cc(NC(=O)c2ccccc2)c(=O)n2c(cc3c(Cl)cccc32)c1O
OUT: > 100 µM

IN: # returns recorded TGI (system: HCC-2998 colon) for Nc1nc(SCC(=O)c2ccccc2)nc2nc3c(c(-c4ccccc4)c12)CCCC3
OUT: > 100 µM

IN: # returns recorded TGI (system: HCC-2998 colon) for CCCCCCCCCCCCCCCc1ccc(C(=O)C[n+]2ccccc2)cc1
OUT: 2.55 µM

IN: # returns recorded TGI (system: HCC-2998 colon) for COC(=O)C1(c2ccc(OC)cc2)NC(c2ccccc2)C2C(=O)N(c3ccc(OC)cc3)C(=O)C21 (stereo unspecified)
OUT: > 100 µM

IN: # returns recorded TGI (system: HCC-2998 colon) for NC(=S)NS(=O)(=O)c1ccc(F)cc1
OUT: > 100 µM

IN: # returns recorded TGI (system: HCC-2998 colon) for O=C(N/N=C1\CCc2ccccc21)N/N=C1\CCc2ccccc21
OUT: > 100 µM

IN: # returns recorded TGI (system: HCC-2998 colon) for C=C1C(=O)C23C(O)C1CCC2C12CO[C@]3(O)[C@@H](O)C1C(C)(C)CCC2O (stereo partly specified)
OUT: 30.4 µM

IN: # returns recorded TGI (system: HCC-2998 colon) for COC(=O)C1(C)CCc2c(ccc3ccccc23)C1=O (stereo unspecified)
OUT: > 100 µM

IN: # returns recorded TGI (system: HCC-2998 colon) for CC(=O)Nc1ccc2c(c1)C(=Nc1ccc(C(=O)O)cc1)c1ccccc1-2
OUT: > 100 µM

---

System: SN12C renal
Test: NCI tumour cell line growth inhibition, 48 h; in the data active = GI50 below about 0.43 µM; inactive = the rest
Choose the fitting class; nothing outside T for active, F for inactive is accepted.

O=C1/C(=C\c2ccccc2)CN(C(=O)c2ccccc2F)C/C1=C\c1ccccc1
F
CCN(CC)c1ccc(/C=C/C2=[N+](C)c3ccccc3C2(C)C)cc1
T
COc1ccc2c(c1)C(=O)/C(=C/c1ccc(OCC(=O)c3ccc(Cl)cc3)cc1)O2
F

IN: Which outcome was entered for the compound O=C1c2cccnc2-c2nc(-c3ccccc3)cc3c2c1nc1ccccc13 in this test?
OUT: F

---

System: HT29 colon
Assay: NCI tumour cell line growth inhibition, 48 h
measurement.label: GI50

Worked examples follow.
COc1ccc2c(c1)C(=O)/C(=C/c1ccc(OCC(=O)c3ccc(Cl)cc3)cc1)O2
20.1 µM
C/C=C(\C)C(=O)O[C@@H]1C=CC(=O)O[C@H]1COC(=O)[C@H](C)O
5.93 µM

Kindly consider the entry below.
IN: What measured GI50 goes with COc1cc2c(cc1OCCCN1CCN(CCCOc3cc4c(cc3OC)C(=O)C3CCC[C@H]3C=N4)CC1)N=C[C@@H]1CCCC1C2=O (stereo partly drawn) ?
OUT: 23.3 µM

---

Test system: CAKI-1 renal
Experiment: NCI tumour cell line growth inhibition, 48 h
measurement.label: TGI

Worked examples follow.
CCCN=C1S/C(=C/c2ccc(OC)c(OC)c2)C(=O)N1c1ccccc1
> 100 µM
C/C=C(\C)C(=O)O[C@@H]1C=CC(=O)O[C@H]1COC(=O)[C@H](C)O
42.9 µM
COc1ccc(-c2c(C(=O)Nc3ccccc3)c(-c3ccccc3)n(C3OC(CO)C(O)C(O)C3O)c(=S)c2C#N)cc1 (stereo not drawn)
> 100 µM

IN: What measured TGI goes with CCOC(=O)c1c(C)n(-c2ccc(C)cc2)c2c1cc(O)c1[nH]c3c(c12)CCCC3 ?
OUT: > 100 µM

IN: What measured TGI goes with ClCc1nc2cc(Cl)ccc2o1 ?
OUT: 3.24 µM

IN: What measured TGI goes with CCCCCCCCCCCCCCCc1ccc(C(=O)C[n+]2ccccc2)cc1 ?
OUT: 3.45 µM

IN: What measured TGI goes with Nc1nc(Cl)cc(NCC2(CO)CC(O)C2)n1 (stereo not drawn) ?
OUT: > 100 µM

IN: What measured TGI goes with Cc1[nH]c2ncn(N)c(=N)c2c1Cc1ccccc1 ?
OUT: > 100 µM

---

System: UACC-62 melanoma
Test: NCI tumour cell line growth inhibition, 48 h
measurement.label: TGI

Worked examples follow.
O=C1C2=Cc3ccccc3CCN2c2ccc([N+](=O)[O-])cc21
> 100 µM
Nc1cccc2cc(S(=O)(=O)Nc3ccc(C(=O)O)cc3)ccc12
> 100 µM
O=C1Nc2ccccc2/C1=C\c1c(Cl)[nH]c2ccccc12
9.75 µM
N/C(=N\N=C=C1C(=O)Nc2ccc(F)cc21)NO
> 100 µM
CSc1nc2ccccc2c(=O)n1-c1cccc(C)c1
> 100 µM

IN: What measured TGI goes with Cc1ccc2c(c1)/C(=N\N=C/c1cn(C(C)C)c3ccccc13)C(=O)N2 ?
OUT: > 100 µM

IN: What measured TGI goes with Nc1nc(Cl)c(N)c(NCC2(CO)CC(O)C2)n1 (stereo not given) ?
OUT: > 100 µM

IN: What measured TGI goes with O=c1[nH]cnc2c1nnn2C1C=C(CO)C(O)C1O (stereo not given) ?
OUT: > 100 µM

IN: What measured TGI goes with CSc1nc(NC2OC(CO)C(O)C(O)C2O)c(N)c(=O)n1C (stereo not given) ?
OUT: > 100 µM

IN: What measured TGI goes with Cc1cc2c(cc1-c1cc3c(cc1C)C(C(C)C)=C(O)C(=O)/C3=C\Nc1cccc3c(N)cccc13)/C(=C/Nc1cccc3c(N)cccc13)C(=O)C(O)=C2C(C)C ?
OUT: > 100 µM

IN: What measured TGI goes with Cc1c(/C=N\NC(=S)N(C)CCN(C)C(=S)N/N=C\c2c(C)n(C)n(-c3ccccc3)c2=O)c(=O)n(-c2ccccc2)n1C ?
OUT: > 100 µM

IN: What measured TGI goes with CCN=C(N)CSS(=O)(=O)O ?
OUT: > 100 µM

IN: What measured TGI goes with CCN1C(=O)N(CC)C2C1NN=c1s/c(=C\c3ccc([N+](=O)[O-])cc3)c(=O)n12 (stereo not given) ?
OUT: > 100 µM

IN: What measured TGI goes with CCCCC[C@H]1CC=CC(=O)O1 ?
OUT: 23 µM

IN: What measured TGI goes with CCN1N=CSC12C(=O)N(c1ccccc1)C(=O)N2c1ccccc1 (stereo not given) ?
OUT: > 100 µM

IN: What measured TGI goes with COc1ccc(/C=N/Nc2nc3ccccc3c(=O)n2-c2ccccc2)cc1 ?
OUT: > 100 µM

IN: What measured TGI goes with c1cc(-c2ccc(Oc3ccc(-c4ccncc4)cc3)cc2)ccn1 ?
OUT: > 100 µM

IN: What measured TGI goes with Cc1ccc(NC(=O)c2cc(S(=O)(=O)N3CCNNC3=O)c(S)cc2Cl)cc1 ?
OUT: > 100 µM

IN: What measured TGI goes with COc1ccc2[nH]c3c(c2c1)CCc1ccccc1-3 ?
OUT: > 100 µM

IN: What measured TGI goes with N/C(=N/O)c1cn(C2OC(CO)C(O)C2O)c2ncnc(NO)c12 (stereo not given) ?
OUT: 1.66 µM

---

Test system: MOLT-4 leukemia
Assay: NCI tumour cell line growth inhibition, 48 h
measurement.label: TGI (µM)
Entry rule: numbers only, all in µM.

Worked examples follow.
Cc1ccc2c(c1)/C(=N\N=C/c1cn(C(C)C)c3ccccc13)C(=O)N2
0.753
CCCCC[C@H]1CC=CC(=O)O1
18.8

Kindly consider the entry below.
IN: What measured TGI goes with CCOC(=O)/C(=C/c1c(-c2ccccc2)[nH]c2ccccc12)C(=O)c1ccc(Cl)cc1 ?
OUT: 8.21
